molecular target: Rs89B1 (Raphanus sativus); construct: gene LOC108814497; full-length CDS, C-terminal 6xHis tag (kept), expressed in Schizosaccharomyces pombe TN4, HisTrap purified; start MTVNEENT (from primer); experiment: HPLC glucosyltransferase assay, initial rates, curve fitting; type: biochemical; conditions: co-substrate UDP-glucose (5.0 mM in basic mix), sodium phosphate pH 7.0, 30°C
Sequence (A0A6J0K544 entry or part of it): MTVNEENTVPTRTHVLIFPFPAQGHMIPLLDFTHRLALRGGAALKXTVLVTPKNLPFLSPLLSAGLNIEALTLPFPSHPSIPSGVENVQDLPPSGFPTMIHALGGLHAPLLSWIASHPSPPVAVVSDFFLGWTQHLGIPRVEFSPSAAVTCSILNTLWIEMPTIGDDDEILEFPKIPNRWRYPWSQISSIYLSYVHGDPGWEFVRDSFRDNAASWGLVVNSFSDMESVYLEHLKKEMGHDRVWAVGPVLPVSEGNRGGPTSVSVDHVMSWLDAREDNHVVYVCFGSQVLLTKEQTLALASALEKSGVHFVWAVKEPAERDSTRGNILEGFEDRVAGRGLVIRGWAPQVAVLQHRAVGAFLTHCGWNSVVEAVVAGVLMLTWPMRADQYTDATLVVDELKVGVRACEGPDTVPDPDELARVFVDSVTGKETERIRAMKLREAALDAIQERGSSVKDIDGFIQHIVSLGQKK
Please respond with reported Km for every item in the list.
Please state the figure in µM; there is no need to write the unit.

Exam item: Suppose we examine the compound O=C(O)c1ccc(O)cc1O [2,4-DHBA] ; what Km value has been reported?
Marked response: 182

Exam item: Suppose we examine the compound O=C(O)c1ccc(O)cc1 [4-HBA] ; what Km value has been reported?
Marked response: 233

Exam item: Suppose we examine the compound O=C(O)c1cc(O)ccc1O [2,5-DHBA] ; what Km value has been reported?
Marked response: 774

Exam item: Suppose we examine the compound O=C(O)c1c(O)cc(O)cc1O [2,4,6-THBA] ; what Km value has been reported?
Marked response: 198

Exam item: Suppose we examine the compound O=C(O)c1ccc(O)c(O)c1O [2,3,4-THBA, 2,3,4-trihydroxy benzoic acid] ; what Km value has been reported?
Marked response: 138

====

biological target: Rs89B1 (Raphanus sativus); construct: gene LOC108814497; full-length CDS, C-terminal 6xHis tag (kept), expressed in Schizosaccharomyces pombe TN4, HisTrap purified; start MTVNEENT (from primer); test: HPLC glucosyltransferase assay, initial rates, curve fitting; assay type: biochemical; settings: co-substrate UDP-glucose (5.0 mM in basic mix), sodium phosphate pH 7.0, 30°C; read-out: Rs89B1_ins / Km
// classify: if (Km < 300 µM) criterion met else criterion not met

Exam item: Identify whether the compound `O=C(O)c1cc(O)ccc1O` records Km below 300 µM.
Marked response: criterion not met

Exam item: Identify whether the compound `O=C(O)c1c(O)cc(O)cc1O` records Km below 300 µM.
Marked response: criterion not met

Exam item: Identify whether the compound `O=C(O)c1ccc(O)cc1` records Km below 300 µM.
Marked response: criterion met

Exam item: Identify whether the compound `O=C(O)c1ccc(O)cc1O` records Km below 300 µM.
Marked response: criterion met

Exam item: Identify whether the compound O=C(O)c1ccc(O)c(O)c1O [2,3,4-THBA, 2,3,4-trihydroxy benzoic acid] records Km below 300 µM.
Marked response: criterion met
